Tested on: human APOE RNA
Assay: Dose-dependent inhibition of human APOE RNA in differentiated SH-SY5Y cells, free uptake, 5 days (Example 5)
Format: cell-based
Details: 5 nM, 5 days (Table 13)
Strand notation (5' to 3'): a small letter for the sugar, then the base; units joined by * are phosphorothioate-linked, units joined directly phosphodiester-linked; [ ] holds rarer units or linkages, { } end groups; capitals alone tell only the bases. [ms] = mesyl phosphoramidate linkage; e = 2'-O-(2-methoxyethyl) (MOE); k = constrained ethyl (cEt); [5mC] = 5-methylcytosine; d = 2'-deoxy (DNA)
MEASURED_ATTRIBUTE: APOE RNA (% UTC)

1. Aes^mCeoTeoTesGesGksTdsGdzAdzAdzTds^mCdsTdsTdsTdsAdzTksTksAesAe (eA*e[5mC]eTeT*eG*kG*dT*dG[ms]dA[ms]dA[ms]dT*d[5mC]*dT*dT*dT*dA[ms]kT*kT*eA*eA) [Compound No. 1757576]    75
2. Aks^mCeoTeoTesGesGksTdsGdzAdzAdzTds^mCdsTdsTdsTdsAdzTksTksAesAe (kA*e[5mC]eTeT*eG*kG*dT*dG[ms]dA[ms]dA[ms]dT*d[5mC]*dT*dT*dT*dA[ms]kT*kT*eA*eA) [Compound No. 1809635]    67
3. TezTeoGeoGksTdsGdzAdzAdzTds^mCdsTdsTdsTdsAdzTksTksAesAesAes^mCe (antisense eT[ms]eTeGkG*dT*dG[ms]dA[ms]dA[ms]dT*d[5mC]*dT*dT*dT*dA[ms]kT*kT*eA*eA*eA*e[5mC]) [Compound No. 1809814]    91
4. ^mCksTksTksGdzGdzTdzGdzAdzAdzTds^mCdsTdsTdsTdsAdsTdsTksAksAdzAk (antisense k[5mC]*kT*kT*dG[ms]dG[ms]dT[ms]dG[ms]dA[ms]dA[ms]dT*d[5mC]*dT*dT*dT*dA*dT*kT*kA*dA[ms]kA) [Compound No. 1785602]    74

###

// values below are reported APOE RNA (% UTC)
System: human APOE RNA
Assay: Dose-dependent inhibition of human APOE RNA in HepG2 cells, electroporation, 50,000 cells per well, RT-PCR normalized to GAPDH (Example 4, Tables 8-10)
Format: cell-based
Settings: 33 nM; HepG2, electroporation, 16-hour treatment
Strand notation (5' to 3'): a small letter for the sugar, then the base; units joined by * are phosphorothioate-linked, units joined directly phosphodiester-linked; [ ] holds rarer units or linkages, { } end groups; capitals alone tell only the bases. [ms] = mesyl phosphoramidate linkage; e = 2'-O-(2-methoxyethyl) (MOE); k = constrained ethyl (cEt); [5mC] = 5-methylcytosine; d = 2'-deoxy (DNA)
MEASURED_ATTRIBUTE: APOE RNA (% UTC)

1) 1757569 (eA*e[5mC]eTkTkG*dG*dT*dG*dA*dA*dT*d[5mC]*dT*dT*dT*kAeTeT*eA*eA; antisense) [Compound 1757569]    82
2) 1757565 (eA*e[5mC]eTeTkG*dG*dT*dG*dA*dA*dT*d[5mC]*dT*dT*dT*eAeTeT*eA*eA; antisense) [Compound 1757565]    76
3) 1766559 (eT*eTeGeGeT*dG[ms]dA[ms]dA[ms]dT*d[5mC]*dT*dT*dT[ms]dA[ms]dT*kTkAeA*eA*e[5mC]; antisense) [Compound 1766559]    65
4) 1757562: mixed MOE/cEt gapmer TTGGTGAATCTTTATTAA, sugar eeeekddddddddkkeee, linkages soossssssssssooss (eT*eTeGeG*kT*dG*dA*dA*dT*d[5mC]*dT*dT*dT*kAkTeT*eA*eA) [compound 1757562]    56
5) 1757572 (eA*e[5mC]eTeT*kG*kG*dT*dG[ms]dA[ms]dA[ms]dT*d[5mC]*dT*dT*dT*dA[ms]eT*eT*eA*eA; antisense) [Compound 1757572]    107

###

Test system: human APOE RNA
Assay: Dose-dependent inhibition of human APOE RNA in HepG2 cells, electroporation, 50,000 cells per well, RT-PCR normalized to GAPDH (Example 4, Tables 8-10)
Format: cell-based
Details: 3,200 nM; HepG2, electroporation, 24-hour treatment
Strand notation (5' to 3'): a small letter for the sugar, then the base; units joined by * are phosphorothioate-linked, units joined directly phosphodiester-linked; [ ] holds rarer units or linkages, { } end groups; capitals alone tell only the bases. [ms] = mesyl phosphoramidate linkage; k = constrained ethyl (cEt); [5mC] = 5-methylcytosine; d = 2'-deoxy (DNA)
MEASURED_ATTRIBUTE: APOE RNA (% UTC)

1) 1746786 (k[5mC]*kT*dT[ms]dG[ms]kG*dT[ms]dG[ms]dA[ms]dA[ms]dT*d[5mC]*dT*dT*dT*dA[ms]dT*kT*kA*dA[ms]kA; antisense) [Compound 1746786]    34
2) 1746796 (k[5mC]*kT*dT[ms]dG[ms]kG*dT[ms]dG[ms]dA[ms]dA[ms]dT*d[5mC]*dT*dT*dT*dA[ms]dT*kT*dA[ms]kA*kA; antisense) [Compound 1746796]    40
3) 1746784 (k[5mC]*kT*kT*dG[ms]dG[ms]dT[ms]dG[ms]dA[ms]dA[ms]dT*d[5mC]*dT*dT*dT*dA[ms]dT*kT*kA*dA[ms]kA; antisense) [Compound 1746784]    10
4) 1747053 (k[5mC]*dT[ms]dT[ms]kG*kG*kT*dG[ms]dA[ms]dA[ms]dT*d[5mC]*dT*dT*dT*dA[ms]dT*kT*dA[ms]dA[ms]kA; antisense) [Compound 1747053]    39
5) 1747050 (k[5mC]*kT*kT*dG[ms]dG[ms]kT*dG[ms]dA[ms]dA[ms]dT*d[5mC]*dT*dT*dT*dA[ms]dT*kT*dA[ms]dA[ms]kA; antisense) [Compound 1747050]    31
6) 1746812 (k[5mC]*dT[ms]dT[ms]dG[ms]kG*kT*dG[ms]dA[ms]dA[ms]dT*d[5mC]*dT*dT*dT*dA[ms]dT*dT[ms]kA*kA*kA; antisense) [Compound 1746812]    31
7) 1746810 (k[5mC]*dT[ms]kT*dG[ms]dG[ms]kT*dG[ms]dA[ms]dA[ms]dT*d[5mC]*dT*dT*dT*dA[ms]dT*dT[ms]kA*kA*kA; antisense) [Compound 1746810]    13

###

Test system: human APOE RNA
Assay: Potency (dose response, ED50) in APOE C57BL/6NTac-Apoeem7250 knock-in mice, 8 weeks (Example 15)
Format: in vivo
Details: cortex, ICV dose 30 μg
Strand notation (5' to 3'): a small letter for the sugar, then the base; units joined by * are phosphorothioate-linked, units joined directly phosphodiester-linked; [ ] holds rarer units or linkages, { } end groups; capitals alone tell only the bases. [ms] = mesyl phosphoramidate linkage; e = 2'-O-(2-methoxyethyl) (MOE); k = constrained ethyl (cEt); [5mC] = 5-methylcytosine; d = 2'-deoxy (DNA)
Mark Condition met only when APOE RNA (% control) Cortex stays strictly below 80 % control. Values equal to the cut-off are Condition not met.

1) 1785599: modified oligonucleotide complementary to human APOE RNA (k[5mC]*kT*kT*dG[ms]dG[ms]dT[ms]dG[ms]dA[ms]dA[ms]dT[ms]d[5mC]*dT*dT*dT*dA*dT*kT*kA*dA[ms]kA; antisense) [compound 1785599]    Condition met
2) ^mCksTksTksGdzGdzTdzGdzAdzAdzTds^mCdsTdsTdsTdsAdsTdsTksAksAdzAk (antisense k[5mC]*kT*kT*dG[ms]dG[ms]dT[ms]dG[ms]dA[ms]dA[ms]dT*d[5mC]*dT*dT*dT*dA*dT*kT*kA*dA[ms]kA) [Compound No. 1785602]    Condition not met
3) Aes^mCeoTeoTesGesGksTdsGdzAdzAdzTds^mCdsTdsTdsTdsAdzTksTksAesAe (eA*e[5mC]eTeT*eG*kG*dT*dG[ms]dA[ms]dA[ms]dT*d[5mC]*dT*dT*dT*dA[ms]kT*kT*eA*eA) [Compound No. 1757576]    Condition not met
4) TezTeoGeoGksTdsGdzAdzAdzTds^mCdsTdsTdsTdsAdzTksTksAesAesAes^mCe (antisense eT[ms]eTeGkG*dT*dG[ms]dA[ms]dA[ms]dT*d[5mC]*dT*dT*dT*dA[ms]kT*kT*eA*eA*eA*e[5mC]) [Compound No. 1809814]    Condition not met
5) Aks^mCeoTeoTesGesGksTdsGdzAdzAdzTds^mCdsTdsTdsTdsAdzTksTksAesAe (kA*e[5mC]eTeT*eG*kG*dT*dG[ms]dA[ms]dA[ms]dT*d[5mC]*dT*dT*dT*dA[ms]kT*kT*eA*eA) [Compound No. 1809635]    Condition not met
